Test system: HeLa
Assay: Phototoxicity in human HeLa cells assessed as reduction in cell viability in presence of irradiation with 625 nm laser light by MTT assay
Format: functional, cell-based
Conditions: light or radiation study
readout-kind: pIC50
Remember, pIC50 is on a log scale: it is -log10 of the molar concentration.

(Q) Quick one: pIC50 of "COC(=O)c1ccc(C2=C3C(Br)=c4sc(-c5ccc(Br)s5)cc4=[N+]3[B-](F)(F)n3c2cc2sc(-c4ccc(Br)s4)cc23)cc1" ?
(A) 5.15

----------
Experiment: Dark toxicity in human PBMC assessed as reduction in cell viability after 24 hrs by MTT assay
Type: cell-based
readout-kind: IC50 at 24 h (µM)
Report as a plain number; the unit µM is understood.

(Q) Look up IC50 at 24 h for this molecule: "CCN1/C(=C\C=C\c2sc3cc4c(cc3[n+]2CC)sc(/C=C/C=C2\N(CC)c3ccccc3C2(C)C)[n+]4CC)C(C)(C)c2ccccc21"
(A) 20

----------
Tested on: MIA PaCa-2
Test: Phototoxicity in human MIAPaCa2 cells assessed as reduction in cell viability pre-incubated for 1 hr before photo-irradiation with 700 mW-630 nm laser light for 15 mins by MTT assay
Type: functional, cell-based
Details: MIA PaCa-2, light or radiation study
readout-kind: IC50 (µM)
The figure you give is taken to be in µM; do not add the unit.

(Q) # query: IC50 | item "O=C1C(I)=C(O)C(=C2C(=O)C(c3c(O)c(I)c(O)c(I)c3O)=C2O)C(O)=C1I" | system: MIA PaCa-2
(A) 28.3

----------
Assay: Dark toxicity in human MIAPaCa2 cells assessed as reduction in cell viability by MTT assay
Type: cell-based, MIA PaCa-2
readout-kind: IC50

(Q) Which IC50 is listed for "O=C1C(I)=C(O)C(=C2C(=O)C(c3c(O)c(I)c(O)c(I)c3O)=C2O)C(O)=C1I" ?
(A) > 50 µM

----------
Assay: Dark toxicity in human A431 cells assessed as reduction in cell viability after 72 hrs by MTT assay
Type: cell-based, A-431
readout-kind: GI50 at 72 h

(Q) # input compound: "CCOC(=O)c1cc2c(n1C)-c1nc(N)ncc1CC2" ; wanted: its GI50 at 72 h
(A) > 20 µM

(Q) // query GI50 at 72 h value for entry "CCOC(=O)c1cc2c(n1Cc1ccccc1)-c1nc(N)ncc1CC2"
(A) > 20 µM

----------
Test: Dark toxicity in human SiHa cells assessed as reduction in cell viability by MTT assay
Assay type: cell-based
readout-kind: IC50

(Q) Dear colleague, I am looking for the recorded IC50 of the following compound: "O=C1C(I)=C(O)C(=C2C(=O)C(c3c(O)c(I)c(O)c(I)c3O)=C2O)C(O)=C1I"
(A) > 50 µM

----------
Test: Dark toxicity in human HCT116 cells assessed as reduction in cell viability by MTT assay
Assay type: cell-based, HCT-116
pIC50: −log10 of the molar value.
readout-kind: pIC50

(Q) Given the molecule "O=C1C(I)=C(O)C(=C2C(=O)C(c3c(O)c(I)c(O)c(I)c3O)=C2O)C(O)=C1I" , what is its reported pIC50?
(A) < 4.30

----------
Experiment: Dark toxicity in human LoVo cells assessed as reduction in cell viability after 72 hrs by MTT assay
Assay type: cell-based
Measured GI50 at 72 h, listed per entry.

smiles	readout-kind	result
Cn1ccc2c1-c1[nH]c(=O)ncc1CC2	GI50 at 72 h	> 20 µM
CCOC(=O)c1cc2c(n1C)-c1[nH]c(=O)ncc1CC2	GI50 at 72 h	> 20 µM

(Q) Which GI50 at 72 h is reported for this compound? "CCOC(=O)c1cc2c(n1Cc1ccc(C)cc1)-c1nc(N)ncc1CC2"
(A) > 20 µM

(Q) Recorded GI50 at 72 h of "CCOC(=O)c1cc2c(n1Cc1ccccc1)-c1nc(N)ncc1CC2" , please.
(A) 14.2 µM

(Q) Which measured GI50 at 72 h value corresponds to "CCOC(=O)c1cc2c(n1C)-c1nc(N)ncc1CC2" ?
(A) > 20 µM

----------
Assay: Dark toxicity in human SCC131 cells assessed as reduction in cell viability by MTT assay
Format: cell-based
readout-kind: IC50

(Q) For the compound "O=C1C(I)=C(O)C(=C2C(=O)C(c3c(O)c(I)c(O)c(I)c3O)=C2O)C(O)=C1I" , what IC50 is on record?
(A) > 50 µM

----------
Experiment: Dark toxicity in human C8161 cells assessed as reduction in cell viability after 24 hrs by MTT assay
Type: cell-based
readout-kind: IC50 at 24 h (µM)
Numeric answer only, unit µM assumed.

(Q) Record request: IC50 at 24 h value, item "CCN1/C(=C\C=C\c2sc3cc4c(cc3[n+]2CC)sc(/C=C/C=C2\N(CC)c3ccccc3C2(C)C)[n+]4CC)C(C)(C)c2ccccc21"
(A) 20

----------
Assay: Phototoxicity in human C8161 cells assessed as reduction in cell viability under irradiation with >500 nm light after 24 hrs by MTT assay
Assay type: functional, cell-based
Conditions: C8161, light or radiation study
readout-kind: IC50 (µM)
Your answer is read as µM, so omit the unit and give the number.

(Q) Any idea what IC50 was measured for "CCN1/C(=C\C=C\c2sc3cc4c(cc3[n+]2CC)sc(/C=C/C=C2\N(CC)c3ccccc3C2(C)C)[n+]4CC)C(C)(C)c2ccccc21" ?
(A) 5

----------
The following compounds are shown together with reported GI50 at 72 h values.
Assay: Dark toxicity in human Jurkat cells assessed as reduction in cell viability after 72 hrs by MTT assay
Format: cell-based
Your answer should be a plain number; it is taken to be in µM.

smiles	scale-unit	GI50 at 72 h
CCOC(=O)c1cc2c(n1Cc1ccccc1)-c1nc(N)ncc1CC2	µM	14

(Q) # GI50 at 72 h lookup, item "CCOC(=O)c1cc2c(n1C)-c1[nH]c(=O)ncc1CC2"
(A) 6

----------
Assay: Dark toxicity in human MCF7 cells assessed as reduction in cell viability by MTT assay
Type: cell-based
pIC50: −log10 of the molar value.
readout-kind: pIC50

(Q) Look up pIC50 for this compound: "O=C1C(I)=C(O)C(=C2C(=O)C(c3c(O)c(I)c(O)c(I)c3O)=C2O)C(O)=C1I"
(A) < 4.30

----------
Test system: SK-OV-3
Assay: Phototoxicity in human SKOV3 cells assessed as reduction in cell viability in presence of irradiation with green lED light at 25.2 J/cm2 for 2 hrs followed by incubation in dark for 24 hrs by MTT assay
Assay type: functional, cell-based
Details: SK-OV-3, light or radiation study
Recorded pEC50 for the following compounds
Expect pEC50 as a plain number equal to -log10 of the molar concentration.

Solved entries (count: 3):
smiles	pEC50
CC1=C(I)C(C)=[N+]2C1=C(c1ccc([N+](=O)[O-])cc1)c1c(C)c(I)c(C)n1[B-]2(F)F	8.70
CC1=C(I)C(C)=[N+]2C1=Cc1c(C)c(I)c(C)n1[B-]2(F)F	7.54
CC1=C(I)C(C)=[N+]2C1=C(c1c(Cl)cccc1Cl)c1c(C)c(I)c(C)n1[B-]2(F)F	9.11

(Q) What value of pEC50 on SK-OV-3 does "COc1ccc(C2=C3C(C)=C(I)C(C)=[N+]3[B-](F)(F)n3c(C)c(I)c(C)c32)cc1" have?
(A) 9.19

(Q) # get_value(readout= pEC50, system= SK-OV-3) for "CC1=C(I)C(C)=[N+]2C1=C(c1ccncc1)c1c(C)c(I)c(C)n1[B-]2(F)F"
(A) 8.89

----------
Assay: Dark toxicity in mouse L5178Y cells assessed as cell viability at 0.5 uM
Type: cell-based
Conditions: read-out: Activity
readout-kind: viability at 0.5 µM (%)
Kindly provide the numeric value in % only, without the unit symbol.

(Q) If you can, please state the reported viability at 0.5 µM value of "O=C1C(I)=C(O)C(=C2C(=O)C(c3c(O)c(I)c(O)c(I)c3O)=C2O)C(O)=C1I" .
(A) 90

----------
Assay: Phototoxicity in human […] cells assessed as cell viability at 10 ug/ml under irradiation at 457 nm at 20 J/cm2 by CCK8 assay
Format: functional
Conditions: light or radiation study, read-out: Activity
readout-kind: viability at 10 µg/mL (%)
Could you give me the number in %? Just the number is fine.

smiles	viability at 10 µg/mL [%]
COCCOCCOCCN(CCOCCOCCOC)c1ccc(/C=C2\CC/C(=C\c3ccc(N(CCOCCOCCOC)CCOCCOCCOC)cc3)C2=O)cc1	60

Consider now this further compound.
(Q) Bench note: what viability at 10 µg/mL did "CCN(CC)c1ccc(/C=C2\CC/C(=C\c3ccc(N(CCOCCOCCOCCOC)CCOCCOCCOCCOC)cc3)C2=O)cc1" show?
(A) 10

----------
Assay: Dark toxicity in human MCF10A cells assessed as reduction in cell viability by MTT assay
Format: cell-based, MCF-10A
pIC50: −log10 of the molar value.
readout-kind: pIC50

(Q) Requested read-out: pIC50. Entry: "O=C1C(I)=C(O)C(=C2C(=O)C(c3c(O)c(I)c(O)c(I)c3O)=C2O)C(O)=C1I"
(A) < 4.30
